System: NCI-H522 lung
assay protocol: NCI tumour cell line growth inhibition, 48 h
readout kind: GI50

>>> result("NS(=O)(=O)c1ccc(-n2ncc3c(Nc4ccccc4)ncnc32)cc1")
"51.1 µM"
>>> result("CC(C)C[C@H](NC(=O)CCn1ccc2ncccc2c1=O)B(O)O")
"4.26 µM"
>>> result("Cc1ccc(Nc2cc(C)nc(NCCCNc3ccnc4cc(Cl)ccc34)n2)cc1")
"1.77 µM"
>>> result("Nc1c(C(=O)N/N=C/c2ccc(-c3cc(Cl)c(Cl)cc3Cl)o2)cnn1-c1ccnc2c(C(F)(F)F)cccc12")
"3.37 µM"
>>> result("Cc1ncc(C(=O)Nc2ccc(CN3CCN(C)CC3)c(C(F)(F)F)c2)cc1C#Cc1c(N)ncc2ccccc12")
"0.46 µM"
>>> result("COc1c(Cl)ccc2c(-c3nc4cc(Cl)c(F)cc4s3)cc(=O)oc12")
"1.6 µM"
>>> result("N#C/C(=C\\c1c(-c2ccccc2)[nH]c2ccccc12)C(=O)c1ccccc1")
"3.98 µM"
>>> result("CC(C)C[C@H](NC(=O)[C@@H](NC(=O)c1cccc(-c2ccccc2)n1)[C@@H](C)O)B(O)O")
"0.00302 µM"
>>> result("FC(F)(F)c1cccc2c(SCCc3n[nH]c(=S)o3)ccnc12")
"22.6 µM"
>>> result("Cn1cnc2c(F)c(Nc3ccc(Br)cc3F)c(C(=O)NOCCO)cc21")
"> 63.2 µM"
>>> result("O=C(N/N=C/c1ccc(Cl)cc1Cl)c1ccc2nc(-c3ccc(Cl)cc3)[nH]c2c1")
"2.24 µM"
>>> result("COc1cccc(C2SC(C)C(=O)N2CCc2cccs2)c1 (stereo unspecified)")
"1.71 µM"
>>> result("O=c1oc2c3ccc4cnccc4c3[nH]c2c2ccccc12")
"11.8 µM"
>>> result("Nc1nccc2c1ncn2C1OC(CO)C(O)C1O (stereo unspecified)")
"> 100 µM"
>>> result("Cc1cc(N(CCCNc2ccnc3cc(Cl)ccc23)Cc2ccc3c(c2)OCO3)nc(N2CCCCC2)n1")
"1.89 µM"
>>> result("O=C(CCSc1ccnc2c(C(F)(F)F)cccc12)N/N=C/c1cc(Cl)c(Cl)cc1Cl")
"31.6 µM"

---

Test system: OVCAR-8 ovarian
assay protocol: NCI tumour cell line growth inhibition, 48 h
readout kind: TGI (µM)

>>> readout_number("Cc1ccc2nc(-c3ccc(N)c4ccccc34)[nH]c2c1")
16.9
>>> readout_number("COc1cccc(C2SC(C)C(=O)N2CCc2cccs2)c1 (stereo unspecified)")
14.3
>>> readout_number("CN(C)CCNC(=O)c1ccc(Cl)c2cc3ccccc3nc12")
6.44

---

Test system: OVCAR-3 ovarian
assay protocol: NCI tumour cell line growth inhibition, 48 h; in the data active = GI50 below about 0.43 µM; inactive = the rest
Outcomes: class 1 for active, class 0 for inactive

>>> discrete_label("O=C(COc1cccc(/C=C2\\Oc3ccc4ccccc4c3C2=O)c1)c1ccc(Cl)cc1")
"class 0"
>>> discrete_label("COC(=O)[C@H](C)NC(=O)[C@@H](OC)[C@@H]1Cc2cc3cc(OC4CC(OC5CC(O)C(O)C(C)O5)C(O)C(C)O4)c(C)c(O)c3c(O)c2C(=O)[C@H]1OC1CC(OC2CC(OC3CC(C)(O)C(O)C(C)O3)C(O)C(C)O2)C(O)C(C)O1 (stereo not given in full)")
"class 1"
>>> discrete_label("C[C@@H](COCCC(=O)N1CCN(c2ncc(C(F)(F)F)cn2)CC1)Nc1cn[nH]c(=O)c1C(F)(F)F")
"class 0"
>>> discrete_label("O=C(CCSc1ccnc2c(C(F)(F)F)cccc12)N/N=C/c1cc(Cl)c(Cl)cc1Cl")
"class 0"
>>> discrete_label("NS(=O)(=O)c1ccc(-n2ncc3c(Nc4ccccc4)ncnc32)cc1")
"class 0"

---

Recorded measurements of TGI, one per entry
Test system: EKVX NSCLC
assay protocol: NCI tumour cell line growth inhibition, 48 h
readout kind: TGI

>>> result("O=C(O)CNC(=O)c1ccc2cc(C(=O)N3CC(CCl)c4ccc([N+](=O)[O-])cc43)[nH]c2c1 (centres undefined)")
"> 100 µM"
>>> result("Cc1cc(N(CCC#N)CCC#N)ccc1/C=C1\\SC(=S)NC1=O")
"> 100 µM"
>>> result("Cc1cc(N(CCCNc2ccnc3cc(Cl)ccc23)Cc2ccc3c(c2)OCO3)nc(N2CCCCC2)n1")
"38 µM"
>>> result("CCOC(=O)CCC(NC(=O)Cc1ccc(Oc2nc3ccccc3nc2-c2ccccc2)cc1)C(=O)OCC (centres undefined)")
"> 100 µM"

---

System: DMS 114 small cell lung
assay protocol: NCI tumour cell line growth inhibition, 48 h
readout kind: TGI

>>> result("CC(=O)OC1CCC2C(=CCC3C2(C)C(=O)CC2(C)C(C4(C)OC(C(C)C)=CC4=O)C(O)CC32C)C1(C)C (stereo not drawn)")
"57.8 µM"
>>> result("O=C(Nc1nc2ccc([N+](=O)[O-])cc2s1)C(=O)C(C(=O)c1ccncc1)C1OC(=O)c2ccccc21 (stereo not drawn)")
"> 100 µM"
>>> result("CCCCn1c2ccccc2c2ccc3c(c21)C(=O)C=CC3=O")
"> 100 µM"
>>> result("OCC(O)C(O)C(O)c1nn(-c2ccccc2)c2nc3cc(Cl)c(Cl)cc3nc12 (stereo not drawn)")
"> 100 µM"
>>> result("CN(C)c1ccc(/C=C/C(=O)O)cc1")
"> 100 µM"
>>> result("O=C(CNc1ccc2c(=S)c3ccccc3[nH]c2c1)Nc1ccccc1-c1ccccc1NC(=O)CNc1ccc2c(=S)c3ccccc3[nH]c2c1")
"36.6 µM"
>>> result("Cc1c(-c2nnc(-c3ccccc3)o2)c(=O)n(-c2ccccc2)n1C")
"> 100 µM"
>>> result("CC(=O)/C=C1\\CC(=O)Nc2ccccc2N1")
"> 100 µM"

---

System: K-562 leukemia
assay protocol: NCI tumour cell line growth inhibition, 48 h
readout kind: TGI (µM)

>>> readout_number("CCC1(NC(=O)c2cc(F)c(F)c(F)c2F)C(=O)NC(=O)N(C(C)C)C1=O (centres undefined)")
19.3
>>> readout_number("Cc1cnccc1N=Nc1ccc(N(C)C)cc1")
76.7

---

Tested on: M14 melanoma
assay protocol: NCI tumour cell line growth inhibition, 48 h
Recorded measurements of TGI, one per entry
readout kind: TGI (µM)

>>> readout_number("OCC(O)C(O)C(O)c1nn(-c2ccccc2)c2nc3cc(Cl)c(Cl)cc3nc12 (stereo not drawn)")
41.1
>>> readout_number("Cc1c(O)c(OC2OC(CO)C(O)C(O)C2O)cc2c1C=C[C@@H]1[C@@]2(C)C(=O)C[C@]2(C)[C@@H]([C@@](C)(O)C(=O)CCC(C)(C)O)[C@H](O)C[C@@]12C (stereo partly drawn)")
68.9
>>> readout_number("O=[N+]([O-])c1cccc(Cl)c1Oc1ccc(S(=O)(=O)/N=C(\\NO)Nc2ccc(Cl)cc2)cc1")
27.4
>>> readout_number("CC(C)C[C@H](NC(=O)[C@@H](NC(=O)c1cccc(-c2ccccc2)n1)[C@@H](C)O)B(O)O")
0.0207
>>> readout_number("Cc1ccc(S(=O)(=O)N/N=C2/CCC(C(C)(C)C)CC2Br)cc1 (stereo not drawn)")
35.4
>>> readout_number("COC(=O)[C@]12CC[C@@H](C)[C@H](C)[C@@H]1C1=CC[C@@H]3[C@@]4(C)C(C=O)=C[C@@](C)(COS(C)(=O)=O)C4[C@H](O)C[C@@]3(C)[C@]1(C)CC2 (stereo partly drawn)")
4.5
>>> readout_number("Cc1ccc2c(C(=O)c3c(C)n(CCN4CCOCC4)c4ccccc34)cccc2c1")
62

---

Test system: HS 578T breast
assay protocol: NCI tumour cell line growth inhibition, 48 h
Recorded measurements of TGI, one per entry
readout kind: TGI

>>> result("CCCc1nnc2sc(COc3cc(Cl)c(OCc4nn5c(CCC)nnc5s4)cc3Cl)nn12")
"> 100 µM"
>>> result("CNC(=S)NNc1ncnc2c1ncn2-c1ccc(C)cc1")
"> 100 µM"
>>> result("COc1ccc([C@]23CCN4COC[C@@H]([C@H]42)C2(CC3)OCC(C)(C)CO2)cc1OC")
"> 100 µM"
>>> result("NCCCN1CCN(CCCNc2nc3ccccc3c3[nH]c4ccccc4c23)CC1")
"2.89 µM"
>>> result("NC(CC(O)(c1ccccc1)c1ccccc1)c1ccccc1S (centres undefined)")
"51 µM"
>>> result("CC(C)C[C@H](NC(=O)CCn1ccc2ncccc2c1=O)B(O)O")
"> 71.7 µM"
>>> result("O=[N+]([O-])c1cccc(Cl)c1Oc1ccc(S(=O)(=O)/N=C(\\NO)Nc2ccc(Cl)cc2)cc1")
"27.6 µM"
>>> result("C=Cc1nc(C#N)c(N)o1")
"> 100 µM"
>>> result("O=C1CS[C@@](CC(c2ccc(Cl)cc2)c2ccc(Cl)cc2)(c2ccc(Cl)cc2)N1")
"> 100 µM"
